protocol: NCI Yeast Anticancer Drug Screen. Data for the wt1 strain (AID 149)
conditions used: S. cerevisiae wt1 strain (SPY 50644) growth inhibition; at 33.0 µM
The panel holds about 79,000 compounds, 15% with a hit somewhere; the sample as a whole holds those more often. Activity calls are given as the source filed them. Rule as the data show it: active = growth inhibition above about 70%; inactive = the rest.
Respond using exactly one of the listed classes: active, inactive

Some solved cases for reference:
1. Cc1cccc(/C=N/NC(=S)N2CCCC2)n1
active
2. c1ccc(CCN2CCc3ccccc3C2)cc1
inactive

Which outcome did this test record for the compound Nc1nc(N)c2nc(CNc3ccc(C(=O)NC(CCC(=O)O)C(=O)O)cc3F)cnc2n1 (stereo not given) ?
inactive

Which outcome did this test record for the compound `Oc1ccc(-c2nc(-c3ccc(F)cc3)c(-c3ccc4ccccc4n3)[nH]2)cc1` ?
inactive

Which outcome did this test record for the compound `O=[N+]([O-])c1ccc2c(c1)/C(=N/N=C1c3ccccc3Cc3ccccc31)c1cc([N+](=O)[O-])cc([N+](=O)[O-])c1-2` ?
active

Which outcome did this test record for the compound `Cc1cc(-c2cc(C)c(O)c(C(C)(C)C)c2)cc(C(C)(C)C)c1O` ?
inactive

Which outcome did this test record for the compound `CCOc1ccc(NC(=O)C2=C(C)NC(C)=C(C(=O)Nc3ccc(OCC)cc3)C2c2cccc([N+](=O)[O-])c2)cc1` ?
inactive

Which outcome did this test record for the compound `O=C1Nc2ccc(Br)cc2C1=Nc1ccc2c(c1)OCO2` ?
inactive

Which outcome did this test record for the compound CCOC(=O)C1N=[N+](c2ccccc2)C(=O)/C1=C\n1c(=S)[nH]c2ccc([N+](=O)[O-])cc21 (stereo not given) ?
inactive

Which outcome did this test record for the compound `Cc1c2ccnc(C(=O)NCCN(C)C)c2cc2c3cc(O)ccc3n(C)c12` ?
inactive

Value source: PubChem BioAssay (NCI)
